system: UO-31 renal; experiment: NCI-60 one-dose screen, 48 h (100 = growth as untreated, 0 = no growth, -100 = all killed); details: 10 µM unless noted
Compounds without any hit were thinned out: in the full panel of roughly 83,000, 20% have a hit.
observable: growth (%)
Only the number, expressed in %, is required.

Query: Under UO-31 renal: growth value of `CCN1CCN(C(=S)SCC(=O)Nc2nc3ccc(C)cc3s2)CC1` ?
Result: 60.6

Query: Under UO-31 renal: growth value of `Nc1ncnc(N)c1NC(=O)c1ccc(OCc2ccccc2)cc1` ?
Result: 88.1

Query: Under UO-31 renal: growth value of COC(=O)[C@H](NC(=O)C1(C)CCC[C@]2(C)[C@H]3C[C@H]4C(C(C)C)=C[C@]3(CC[C@@H]12)[C@@H]1C(=O)CCC(=O)[C@@H]14)C(C)C (stereo not given in full) ?
Result: 90.7

Query: Under UO-31 renal: growth value of `COc1ccccc1N1C(=N)S/C(=C\c2ccc(OCc3ccccc3F)cc2)C1=O` ?
Result: 59.2

Query: Under UO-31 renal: growth value of `O=C(N/N=C/c1ccccc1Cl)C(=O)Nc1cccc(C(F)(F)F)c1` ?
Result: 90.8

----------
test system: OVCAR-4 ovarian; assay: NCI-60 one-dose screen, 48 h; details: 10 µM unless noted
The panel holds about 83,000 compounds, 20% with a hit somewhere; the sample as a whole holds those more often. Active and inactive are the calls of the source. The calls were made as follows: active = growth percent below 10; inactive = the rest.
Select the matching outcome among Y (active), N (inactive)

Query: Identify the outcome logged in this assay for the molecule shown: `O=C1C(=O)c2c(ccc3ccccc23)-c2ccccc21`
Result: Y

Query: Identify the outcome logged in this assay for the molecule shown: `COc1ccc(/C=C2\SC(=Nc3ccccc3)NC2=O)cc1`
Result: Y

Query: Identify the outcome logged in this assay for the molecule shown: `Cc1ccc(S(=O)(=O)c2c(COC(=O)c3cccc(C)c3)c(-c3ccccc3)nn2C)cc1`
Result: Y

Query: Identify the outcome logged in this assay for the molecule shown: `CCCCCCCCCCOC(=O)c1ccccc1C(=O)OCCCC`
Result: N

Query: Identify the outcome logged in this assay for the molecule shown: `Cc1ccc2sc3c(NCCCNCCO)nc4ccccc4c3c(=O)c2c1`
Result: N

Query: Identify the outcome logged in this assay for the molecule shown: `CC1=C(C(=O)OCC2CCN(C(=O)OC(C)(C)C)CC2)[C@@H](c2cccc(C#N)c2)C2=C(CC(C)(C)CC2=O)N1`
Result: N

Query: Identify the outcome logged in this assay for the molecule shown: `CCCCc1c(CCC)c(=N)c2ccccc2n1C`
Result: N

Query: Identify the outcome logged in this assay for the molecule shown: `COc1ccc(N)c(-c2cc3c(c4c2[nH]c2ccc(OC)cc24)CCCC3)c1`
Result: N

Query: Identify the outcome logged in this assay for the molecule shown: CN1C(=O)N(C)C2(c3ccccc3)n3c(s/c(=C\c4ccccc4)c3=O)=NNC12c1ccccc1 (stereo unspecified)
Result: N

Query: Identify the outcome logged in this assay for the molecule shown: COc1c(B(O)O)cccc1-c1nc2ccc3[nH]ncc3c2c2c1C1CCC2C1 (stereo unspecified)
Result: N

Query: Identify the outcome logged in this assay for the molecule shown: `O=C1C(Cl)=C(NCc2ccco2)C(=O)c2ccccc21`
Result: N

----------
system: IGROV1 ovarian; assay: NCI-60 one-dose screen, 48 h (100 = growth as untreated, 0 = no growth, -100 = all killed); conditions: 10 µM unless noted
About 83,000 compounds went through this panel and 20% of them were active in at least one assay; those are over-represented in the sample as a whole. Active and inactive are the calls of the source. How the source made its calls: active means growth percent below 10; inactive means the rest.
observable: growth

Query: GET /values?readout=growth&item= `COc1cc(C(=O)Nc2ccc(-c3nc4ccccc4[nH]3)cc2)cc(OC)c1OC`
Result: 46.8% (inactive)

Query: GET /values?readout=growth&item= `COc1cc(/C=C2\Oc3cc(OCCCN4CCCC4)ccc3C2=O)cc(OC)c1`
Result: 51% (inactive)

Query: GET /values?readout=growth&item= `CCN1CCN(c2cc(C)c3cc(NC(=O)c4ccc(OC)c(OC)c4)ccc3n2)CC1`
Result: 36.6% (inactive)

Query: GET /values?readout=growth&item= `COc1ccc(/C=C2/SC(=O)N(CC(=O)N3CCN(c4cc5c(cc4F)c(=O)c(C(=O)O)cn5C4CC4)CC3)C2=O)cc1`
Result: 96% (inactive)

Query: GET /values?readout=growth&item= `O=C(Nc1ccc(Cl)cc1)N1CCN(c2ccc3nncn3n2)CC1`
Result: 72.3% (inactive)

Query: GET /values?readout=growth&item= `O=C(c1ccccc1)N(CCc1ccc(Cl)cc1)C(=S)N(C(=O)c1ccccc1)c1ccccc1`
Result: 116% (inactive)

Query: GET /values?readout=growth&item= `O=C(CCc1nnc2sc(-c3ccc(Cl)cc3Cl)nn12)c1nc2ncccc2[nH]1`
Result: -14.8% (active)

Query: GET /values?readout=growth&item= `NCCOc1ncccc1/C=C1\c2ccccc2-c2ccc([N+](=O)[O-])cc21`
Result: -80.2% (active)

Query: GET /values?readout=growth&item= `CCn1c(SCC(=O)Nc2cc(C(F)(F)F)ccc2Cl)nc2ccccc2c1=O`
Result: 34.2% (inactive)

Query: GET /values?readout=growth&item= Clc1ccc(-c2nnc(COc3ccc(C4=NNC(c5ccco5)C4)cc3)o2)cc1 (stereo unspecified)
Result: 85.4% (inactive)

Query: GET /values?readout=growth&item= `NC(CCl)=NCCC[C@H](N)C(=O)O`
Result: 116% (inactive)

Query: GET /values?readout=growth&item= `O=C(Nc1ccsc1C(=O)NC1CCCCC1)c1ccc(F)cc1`
Result: 90.7% (inactive)

Query: GET /values?readout=growth&item= Nc1nc(N)c2c(n1)NC1(C=C(O)c3ccccc31)C1=C(N2)c2ccccc2C1=O (stereo unspecified)
Result: 92.3% (inactive)

Query: GET /values?readout=growth&item= `O=C(Nc1ccc(N2CCNCC2)cn1)c1[nH]ncc1Nc1ncnc2sc3c(c12)CCC3`
Result: 77.6% (inactive)

Query: GET /values?readout=growth&item= `Cc1ccc(CN2CCC(C(=O)Nc3ccc(-c4cc5ccccc5[nH]4)cc3)CC2)o1`
Result: 61% (inactive)

Query: GET /values?readout=growth&item= `COC(=O)c1ccc(NC(=O)CSc2nc3ccccc3c(=O)n2-c2ccccc2)cc1`
Result: 90.9% (inactive)

Query: GET /values?readout=growth&item= `Cc1c(-c2csc(-n3nc(C(F)(F)F)cc3C(F)(F)F)n2)no[n+]1[O-]`
Result: 102% (inactive)

Query: GET /values?readout=growth&item= `Cc1nc2ccccc2c(/C=C/c2ccc(F)cc2)c1C(N)=O`
Result: 97.4% (inactive)

Query: GET /values?readout=growth&item= `CCOC(=O)c1cnc2c(C)cccc2c1Nc1ccc(C(C)=O)cc1`
Result: 2.45% (active)

Query: GET /values?readout=growth&item= `O=C(CCc1nnc2sc(Cc3ccccc3Cl)nn12)c1nc2ncccc2[nH]1`
Result: 79.6% (inactive)

Query: GET /values?readout=growth&item= `CCCCCCc1cc2cc(-c3nc4ccccc4[nH]3)c(=Nc3ccccc3C)oc2cc1O`
Result: 39.5% (inactive)

Query: GET /values?readout=growth&item= C=CCN1C(=O)/C(=c2\sc3n(c2=O)NC2C(N=3)N(CC)C(=O)N2CC)c2ccccc21 (stereo unspecified)
Result: 34.2% (inactive)

Query: GET /values?readout=growth&item= CCOc1cc(Cl)c(C(C)NC(=O)c2cccc(OC)c2)cc1OCC (stereo unspecified)
Result: 28.2% (inactive)

Query: GET /values?readout=growth&item= `COc1cc2nc(NC3CCC3)nc(NC3CCN(C(C)C)CC3)c2cc1OC`
Result: 75.1% (inactive)

Query: GET /values?readout=growth&item= `COC(=O)/C(CCC=C(C)C)=C1\[C@@H](OC(C)=O)C[C@@]2(C)[C@H]1CC(=O)[C@H]1[C@@]3(C)CC[C@H](NCc4ccccc4)[C@@H](C)[C@@H]3CC[C@@]12C`
Result: 73.4% (inactive)

Query: GET /values?readout=growth&item= `CCOc1ccc2c(c1)CN(Cc1ccc(Cl)cc1)CO2`
Result: 71% (inactive)

Query: GET /values?readout=growth&item= `O=Nc1c(O)ccc2ccccc12.O=Nc1c(O)ccc2ccccc12.O=Nc1c([O-])ccc2ccccc12.[Fe+3]`
Result: 91.1% (inactive)

Query: GET /values?readout=growth&item= `O=c1c(-c2nc3ccccc3[nH]2)cc2ccccc2n1Cc1cn(Cc2ccc(N3CCOCC3)cc2)nn1`
Result: 40% (inactive)

Query: GET /values?readout=growth&item= `COc1ccc(CCN2C(=O)CCSC2=S)cc1`
Result: 41.7% (inactive)

Query: GET /values?readout=growth&item= `Nc1ccccc1-c1ccc(-c2ccc(Cl)cc2)c2c1[nH]c1ccccc12`
Result: 62.3% (inactive)

Query: GET /values?readout=growth&item= `O=C(/C=C/c1ccc(Cl)cc1)c1ccc(Nc2nc(NCCO)nc(N3CCOCC3)n2)cc1`
Result: 84% (inactive)

Query: GET /values?readout=growth&item= `c1ccc(CNc2nc(Nc3ccccc3)nc3ccccc23)cc1`
Result: 63.2% (inactive)

Query: GET /values?readout=growth&item= O=c1[nH]nnc2c1ncn2C1OC(CO)C(O)C1O (stereo unspecified)
Result: 32.7% (inactive)

Query: GET /values?readout=growth&item= `COC(=O)c1c2c(c(C)[n+]([O-])c1C)C(=O)C(NCc1ccc(F)c(F)c1)=CC2=O`
Result: 0.321% (active)

Query: GET /values?readout=growth&item= CC(=O)SC1CC(=O)C=C2CCC3C4CCC(=O)OC4(C)CCC3C21C (stereo unspecified)
Result: 147% (inactive)

Query: GET /values?readout=growth&item= `COc1cccc2c1C=C1CCCCC3=Cc4c(OC)cccc4OC13O2`
Result: 57.5% (inactive)

Sourced from PubChem BioAssay (NCI)
